studySystem: T1, human amylin-3 (a) receptor (human, UniProt P30988 25-474; O60896 24-148)
T1 sequence (looked up) 1: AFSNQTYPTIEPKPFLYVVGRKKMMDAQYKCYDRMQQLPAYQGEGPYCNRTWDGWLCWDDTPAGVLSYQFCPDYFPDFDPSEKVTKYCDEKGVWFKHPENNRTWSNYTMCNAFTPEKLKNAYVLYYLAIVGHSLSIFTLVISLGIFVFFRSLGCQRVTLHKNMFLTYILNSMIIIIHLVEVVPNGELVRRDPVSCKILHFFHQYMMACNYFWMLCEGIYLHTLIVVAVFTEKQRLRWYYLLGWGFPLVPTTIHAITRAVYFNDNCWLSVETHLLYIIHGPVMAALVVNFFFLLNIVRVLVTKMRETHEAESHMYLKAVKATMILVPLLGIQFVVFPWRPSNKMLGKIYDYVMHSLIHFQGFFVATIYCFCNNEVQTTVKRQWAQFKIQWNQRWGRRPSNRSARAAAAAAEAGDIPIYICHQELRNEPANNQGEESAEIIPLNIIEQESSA
T1 sequence (looked up) 2: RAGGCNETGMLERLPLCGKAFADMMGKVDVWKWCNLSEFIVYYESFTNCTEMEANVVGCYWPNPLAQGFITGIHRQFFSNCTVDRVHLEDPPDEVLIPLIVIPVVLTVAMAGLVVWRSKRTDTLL
measurementNotes: cell-based or functional assay
Starred links: 1 amine or outer side, 2 acyl side, 3 side chain; linkers in the order of their positions; H or OH if unused. Non-standard residues stand in square brackets, D forms with d. Groups on a side chain read outwards from the residue. No end group written: not given here. *: point of attachment. C18 diacid = O=C(O)CCCCCCCCCCCCCCCCC(=O)*; γGlu = O=C(O)[C@H](CCC(=O)[*:2])N[*:1]; AEEA = NCCOCCOCC(=O)O; Aib = CC(C)(N)C(=O)O
Criterion: Human AmyR3 potency [EC50 (pM)] strictly under 10 pM. Met: met. Not met: not met.

[
  {
    "binder": "Comparator compound 0672 (ends and bridges not checked) peptide: H[Aib]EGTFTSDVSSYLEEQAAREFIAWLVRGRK([AEEA-AEEA-γGlu-C18 diacid])GGGGEKCNTATCATQRLAEFLRHSSNNFGPILPPTNVGSNTP-NH2",
    "groupLabel": "not met"
  },
  {
    "binder": "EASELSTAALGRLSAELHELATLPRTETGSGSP-NH2 (not fully specified) [Compound 1806]",
    "groupLabel": "met"
  },
  {
    "binder": "Comparator compound 0671 (ends and bridges not checked) peptide: H[Aib]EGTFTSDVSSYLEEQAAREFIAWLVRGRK([AEEA-AEEA-γGlu-C18 diacid])GGGGEKCNTATCATQRLANFLVHSSNNFGPILPPTNVGSNTY-NH2",
    "groupLabel": "not met"
  },
  {
    "binder": "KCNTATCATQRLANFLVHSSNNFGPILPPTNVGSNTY [Pramlintide]",
    "groupLabel": "met"
  },
  {
    "binder": "Compound 0111 (peptide) peptide: H[Aib]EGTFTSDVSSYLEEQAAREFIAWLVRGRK([AEEA-AEEA-γGlu-C18 diacid])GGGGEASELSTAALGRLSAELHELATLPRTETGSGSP-NH2",
    "groupLabel": "not met"
  }
]

Sourced from patent US20260132182A1
